- System: CFU-E
- method_description: erythroid progenitor CFU-E assay, human bone marrow cells in methylcellulose culture
- Assay type: cell-based
- recorded_conditions: ANF analog 0.32 nM + Epo 250 mU/ml; relative to effect of α-ANF[1-28] (100%)
- Excerpt: Utilization of cell culture techniques allowed for the detection of molecules other than Epo which act on erythropoietic precursor cells. […] The erythroid progenitor BFU-E and CFU-E assay was utilized for the in vitro studies by the following method: (1) Collect bone marrow cells from normal human volunteers after obtaining informed consent. (2) Suspend cells in α-medium containing 10% fetal calf serum. (3) Separate by Ficoll-Hypaque gradient to obtain an enriched mononuclear cell population. […]
Ends that are not written are not given here.
The entries below are paired with their reported Potentiation of CFU-E(%).
Give just the number in %; leave the unit off.

Study these solved cases before continuing.
>>> experimental_value("α-ANF[5-28] (SSCFGGRMDRIGAQSGLGCNSFRY; ends and bridges not checked; cysteine pairing not given here; UniProt P01160 128-151, looked up, fragment) [ANF analog available from the Peninsula Corporation; a major circulatory form of ANF]")
143
>>> experimental_value("α-ANF[1-28] (SLRRSSCFGGRMDRIGAQSGLGCNSFRY; not fully specified; ends and bridges not checked; UniProt P01160 124-151, looked up) [human atrial natriuretic factor peptide, obtained from the Peninsula Corporation]")
100

INPUT: Name the recorded Potentiation of CFU-E(%) of the item α-ANF [1-11] (SLRRSSCFGGR; Atrial natriuretic peptide; UniProt P01160 124-134, looked up, fragment) [ANF[1-11], ANF analog available from the Peninsula Corporation] in your answer.
OUTPUT: 14.8

INPUT: Name the recorded Potentiation of CFU-E(%) of the item α-ANF[4-28] (RSSCFGGRMDRIGAQSGLGCNSFRY; ends and bridges not checked; cysteine pairing not given here; UniProt P01160 127-151, looked up, fragment) [ANF analog available from the Peninsula Corporation; a major circulatory form of ANF] in your answer.
OUTPUT: 208

Where these numbers come from: patent US4987121A
